B1: ZNF232 (parent)
chain: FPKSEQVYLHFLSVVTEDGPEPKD

variants of: B1; assay: protein stability index of a GFP-peptide fusion (GPS, HEK-293T) (PSI 1-6); higher = more stable; settings: c terminus: a fixed tail appended;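 also: lentivirally expressed fusions sorted by FACS into six bins by GFP to DsRed ratio, PSI derived from sequencing read proportions per bin multiplied by bin number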

# Variant String, protein stability index
data = [
    ("S4E", 2.95),
    ("D24Q", 2.95),
    ("S13E", 2.98),
    ("V14E", 3),
    ("K3G", 3.07),
]

Provenance of the data: the supplement of paper PMC10567573
